# maps each entry to its inhibition at 1 µM
- study system: human recombinant COX-2 (Homo sapiens, UniProt P35354)
- Construct: expressed in transfected cells; host or cells: Cos-A2 cells, stably transfected
- Sequence (P35354 18-604): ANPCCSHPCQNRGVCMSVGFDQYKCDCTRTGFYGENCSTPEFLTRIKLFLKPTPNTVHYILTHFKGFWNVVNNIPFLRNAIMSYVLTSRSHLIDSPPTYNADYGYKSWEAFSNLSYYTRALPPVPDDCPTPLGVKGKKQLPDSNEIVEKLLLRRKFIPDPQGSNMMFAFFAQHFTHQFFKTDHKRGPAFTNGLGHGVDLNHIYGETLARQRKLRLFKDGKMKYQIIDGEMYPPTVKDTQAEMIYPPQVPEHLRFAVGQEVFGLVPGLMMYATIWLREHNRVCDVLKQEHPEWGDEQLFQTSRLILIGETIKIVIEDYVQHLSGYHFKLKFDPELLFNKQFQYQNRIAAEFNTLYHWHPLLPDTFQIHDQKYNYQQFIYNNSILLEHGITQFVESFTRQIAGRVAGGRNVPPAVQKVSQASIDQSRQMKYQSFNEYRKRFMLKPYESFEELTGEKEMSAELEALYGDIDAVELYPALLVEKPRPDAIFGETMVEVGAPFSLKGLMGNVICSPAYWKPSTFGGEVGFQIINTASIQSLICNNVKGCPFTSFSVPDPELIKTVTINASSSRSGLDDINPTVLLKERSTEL
- assay notes: COX-2 inhibition, COS cell assay
- Format: cell-based
- condition summary: COS, read-out: Inhibition of COX Enzymes in COS Cell Assays, COX-2 % inhibition; 1 μM
Use % as the unit, but write only the number.

Check out these entries, answers already filled in.
molecule: CC(C)S(=O)(=O)C1C(=O)N(Cc2ccccc2)C(=O)c2ccccc21 (centres unmarked)
unit of measurement: %
quantitative result: 37
//
molecule: CC(C)S(=O)(=O)C1C(=O)N(Cc2ccc(Cl)cc2)C(=O)c2ccccc21 (centres unmarked)
unit of measurement: %
quantitative result: 52
//
molecule: CC(C)S(=O)(=O)C1C(=O)N(Cc2ccccc2F)C(=O)c2ccccc21 (centres unmarked)
unit of measurement: %
quantitative result: 45
//
molecule: O=C1c2ccccc2C(S(=O)(=O)c2cccs2)C(=O)N1Cc1ccccc1 (centres unmarked)
unit of measurement: %
quantitative result: 80

Continue with the molecule presented below.
Measured inhibition at 1 µM, O=C1c2ccccc2C(S(=O)(=O)CC(F)(F)F)C(=O)N1Cc1ccccc1 (centres unmarked) : 0
